- assayed_target: D(3) dopamine receptor (Homo sapiens)
- Sequence (P35462 whole entry): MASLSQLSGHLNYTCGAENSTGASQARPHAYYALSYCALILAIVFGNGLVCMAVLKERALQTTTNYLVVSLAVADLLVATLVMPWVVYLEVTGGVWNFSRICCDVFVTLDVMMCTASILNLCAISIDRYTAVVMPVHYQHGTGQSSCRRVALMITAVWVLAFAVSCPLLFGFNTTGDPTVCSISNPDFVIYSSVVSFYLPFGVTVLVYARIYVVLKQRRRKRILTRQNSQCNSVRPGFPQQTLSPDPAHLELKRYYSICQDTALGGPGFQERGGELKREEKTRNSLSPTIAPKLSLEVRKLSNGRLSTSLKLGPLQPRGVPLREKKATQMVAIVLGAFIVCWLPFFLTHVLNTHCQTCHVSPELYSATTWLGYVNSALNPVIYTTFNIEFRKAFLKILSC
- protocol_details: DRUGMATRIX: Dopamine D3 radioligand binding (ligand: [3H] Spiperone)
- Type: cell membranes, CHO, Membrane
value_kind: pKi
Give bare numbers, as −log10 of the molar value.

State the recorded pKi for this entry: O=C1CC2(CCCC2)CC(=O)N1CCCCN1CCN(c2ncccn2)CC1
7.82

---

- assayed_target: Delta-type opioid receptor (Homo sapiens); note: in other assays of this panel Not Active means under 50% inhibition at 10 µM
- Sequence (P41143 whole entry): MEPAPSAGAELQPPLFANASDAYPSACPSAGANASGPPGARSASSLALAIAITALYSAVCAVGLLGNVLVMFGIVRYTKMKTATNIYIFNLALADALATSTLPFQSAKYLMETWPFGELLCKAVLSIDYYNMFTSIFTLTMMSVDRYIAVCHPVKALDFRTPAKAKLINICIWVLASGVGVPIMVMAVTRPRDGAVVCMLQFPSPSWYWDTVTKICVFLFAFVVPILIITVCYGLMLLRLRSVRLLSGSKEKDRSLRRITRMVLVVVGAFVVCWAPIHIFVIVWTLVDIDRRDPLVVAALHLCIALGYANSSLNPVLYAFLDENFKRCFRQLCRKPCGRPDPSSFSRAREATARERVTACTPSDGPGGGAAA
- Assay type: cell membranes, HEK293, Membrane
- recorded_conditions: hek293
value_kind: IC50

Solved cases below.
- CC1(C)O[C@@H]2C[C@H]3[C@@H]4C[C@H](F)C5=CC(=O)C=C[C@]5(C)[C@H]4[C@@H](O)C[C@]3(C)[C@]2(C(=O)CO)O1 [FLUNISOLIDE]: Not Active
- CC1(C)O[C@@H]2C[C@H]3[C@@H]4C[C@H](F)C5=CC(=O)CC[C@]5(C)[C@H]4[C@@H](O)C[C@]3(C)[C@]2(C(=O)CO)O1 [FLURANDRENOLIDE]: Not Active
- CCCC(CCC)C(=O)O: Not Active
- C=C1CC[C@H](O)C/C1=C/C=C1\CCC[C@]2(C)[C@@H]([C@H](C)CCCC(C)C)CC[C@@H]12: Not Active
- CC(=O)N[C@@H]1[C@H](Oc2c3cc4cc2Oc2ccc(cc2Cl)[C@@H](O[C@@H]2O[C@@H](CO)[C@@H](O)[C@H](O)[C@@H]2NC(C)=O)[C@@H]2NC(=O)[C@H](NC(=O)[C@@H]4NC(=O)[C@H]4NC(=O)[C@@H](Cc5ccc(c(Cl)c5)O3)NC(=O)[C@H](N)c3ccc(O)c(c3)Oc3cc(O)cc4c3)c3ccc(O)c(c3)-c3c(O[C@H]4O[C@H](CO)[C@@H](O)[C@@H](O)[C@@H]4O)cc(O)cc3[C@@H](C(=O)O)NC2=O)O[C@@H](CO)[C@@H](O)[C@@H]1O: Not Active
- Nc1c(CC(=O)O)cccc1C(=O)c1ccc(Br)cc1: Not Active
- CC(C)NCC(O)COc1cccc2ccccc12 (stereo not drawn): Not Active
- CC(C)(C(=O)c1cccnc1)c1cccnc1: Not Active
- CCc1c2c(nc3ccc(OC(=O)N4CCC(N5CCCCC5)CC4)cc13)-c1cc3c(c(=O)n1C2)COC(=O)[C@]3(O)CC: Not Active
- COc1ccc2c(c1)[C@]13CCCC[C@@H]1[C@H](C2)N(C)CC3: Not Active

Here are 3 molecules. What values of IC50 were reported for them?
1. C[C@]1(Cn2ccnn2)[C@H](C(=O)O)N2C(=O)C[C@H]2S1(=O)=O
2. O=NN(CCCl)C(=O)NCCCl
3. COc1cc2c(c(OC)c1OC)-c1ccc(OC)c(=O)cc1[C@@H](NC(C)=O)CC2

Not Active
Not Active
Not Active

---

- assayed_target: Neuropeptide Y receptor type 1 (Homo sapiens, UniProt P25929); note: in other assays of this panel Not Active means under 50% inhibition at 10 µM
- Sequence (P25929 whole entry): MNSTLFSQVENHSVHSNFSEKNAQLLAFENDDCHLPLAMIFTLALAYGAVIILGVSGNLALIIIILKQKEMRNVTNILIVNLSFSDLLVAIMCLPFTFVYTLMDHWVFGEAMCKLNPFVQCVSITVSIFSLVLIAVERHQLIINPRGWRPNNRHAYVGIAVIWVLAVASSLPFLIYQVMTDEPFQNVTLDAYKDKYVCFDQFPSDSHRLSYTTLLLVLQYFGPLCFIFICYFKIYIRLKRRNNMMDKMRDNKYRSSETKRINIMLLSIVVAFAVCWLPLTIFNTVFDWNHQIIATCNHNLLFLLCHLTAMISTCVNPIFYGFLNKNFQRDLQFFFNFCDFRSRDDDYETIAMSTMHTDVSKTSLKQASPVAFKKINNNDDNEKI
- Type: cell membranes, Membrane
- recorded_conditions: sk-n-mc
value_kind: IC50

Solved cases below.
• O=C(c1ccc(OCCN2CCCCC2)cc1)c1c(-c2ccc(O)cc2)sc2cc(O)ccc12 [RALOXIFENE] = Not Active
• CCN[C@@H]1C[C@H](N)[C@@H](O[C@H]2OC(CN)=CC[C@H]2N)[C@H](O)[C@H]1O[C@H]1OC[C@](C)(O)[C@H](NC)[C@H]1O [NETILMICIN] = Not Active
• N=C(Nc1ccccc1)Nc1ccccc1 = Not Active
• CCCCN1CCCCC1C(=O)Nc1c(C)cccc1C.Cl (centres undefined) [BUPIVACAINE HYDROCHLORIDE] = Not Active
• C#C[C@]1(OC(C)=O)CC[C@H]2[C@@H]3CCC4=CC(=O)CC[C@@H]4[C@H]3CC[C@@]21C [NORETHINDRONE ACETATE] = Not Active
• C[C@H]1O[C@@H](O[C@H]2[C@@H](O)C[C@H](O[C@H]3[C@@H](O)C[C@H](O[C@H]4CC[C@@]5(C)[C@H](CC[C@@H]6[C@@H]5CC[C@]5(C)[C@@H](C7=CC(=O)OC7)CC[C@]65O)C4)O[C@@H]3C)O[C@@H]2C)C[C@H](O)[C@@H]1O [DIGITOXIN] = Not Active

Here are 8 compounds. What values of IC50 were reported for them?
1. CC[C@]1(O)C[C@@H]2CN(CCc3c([nH]c4ccccc34)[C@@](C(=O)OC)(c3cc4c(cc3OC)N(C)[C@H]3[C@@](O)(C(=O)OC)[C@H](OC(C)=O)[C@]5(CC)C=CCN6CC[C@]43[C@@H]65)C2)C1 [VINBLASTINE]
2. O=C1CC[C@H](N2C(=O)c3ccccc3C2=O)C(=O)N1
3. Cc1cc2cc3c(C)cc(=O)oc3c(C)c2o1 [TRIOXSALEN]
4. CC(=O)N1CCN(c2ccc(OCC3COC(Cn4ccnc4)(c4ccc(Cl)cc4Cl)O3)cc2)CC1 (centres undefined) [KETOCONAZOLE]
5. CCCC(=O)Nc1ccc(OCC(O)CNC(C)C)c(C(C)=O)c1 (centres undefined) [ACEBUTOLOL]
6. CN1C(C(=O)Nc2ccccn2)=C(O)c2sccc2S1(=O)=O [TENOXICAM]
7. CCOC(=O)C(C)(C)Oc1ccc(Cl)cc1 [CLOFIBRATE]
8. COc1ccc2c(c1)c(CC(=O)O)c(C)n2C(=O)c1ccc(Cl)cc1 [INDOMETHACIN]

1. Not Active
2. Not Active
3. Not Active
4. Not Active
5. Not Active
6. Not Active
7. Not Active
8. Not Active

Here are 3 compounds. What values of IC50 were reported for them?
1. CC(C)NCC(O)COc1cccc2ccccc12 (centres undefined) [PROPRANOLOL]
2. CN(C)/N=N/c1[nH]cnc1C(N)=O [DACARBAZINE]
3. C[C@@H]1C[C@@H]([C@H](O)CC2CC(=O)NC(=O)C2)C(=O)[C@@H](C)C1 [CYCLOHEXIMIDE]

1: Not Active; 2: Not Active; 3: Not Active

Here are 5 compounds. What values of IC50 were reported for them?
1. CCOC(=O)[C@H](CCc1ccccc1)N[C@H]1CCc2ccccc2N(CC(=O)O)C1=O [BENAZEPRIL]
2. CC(=O)Nc1cccc(O)c1 [METACETAMOL]
3. Cc1cc(C)nc(NS(=O)(=O)c2ccc(N)cc2)n1 [SULFAMETHAZINE]
4. CC(C(=O)O)c1cccc(C(=O)c2ccccc2)c1 (centres undefined) [KETOPROFEN]
5. CC(C)CC(N(C)C)C1(c2ccc(Cl)cc2)CCC1 (centres undefined) [SIBUTRAMINE]

["Not Active", "Not Active", "Not Active", "Not Active", "Not Active"]

Here are 8 compounds. What values of IC50 were reported for them?
1. O=C(N[C@H](CO)[C@H](O)c1ccc([N+](=O)[O-])cc1)C(Cl)Cl [CHLORAMPHENICOL]
2. Cc1cc(=O)n(-c2ccccc2)n1C [ANTIPYRINE]
3. CCc1c2c(nc3ccc(OC(=O)N4CCC(N5CCCCC5)CC4)cc13)-c1cc3c(c(=O)n1C2)COC(=O)[C@]3(O)CC [IRINOTECAN]
4. CC(=O)OCC(=O)[C@@]1(O)CC[C@H]2[C@@H]3CCC4=CC(=O)CC[C@]4(C)[C@H]3C(=O)C[C@@]21C [CORTISONE ACETATE]
5. COCCOC(=O)C1=C(C)NC(C)=C(C(=O)OC(C)C)C1c1cccc([N+](=O)[O-])c1 (centres undefined) [NIMODIPINE]
6. CC(=O)Nc1ccc(O)cc1 [ACETAMINOPHEN]
7. CCCCOc1ccc(OCCCN2CCOCC2)cc1 [PRAMOXINE]
8. N[C@H](CSC(=S)NCc1ccccc1)C(=O)O

Not Active
Not Active
Not Active
Not Active
Not Active
Not Active
Not Active
Not Active

Here are 2 compounds. What values of IC50 were reported for them?
1. CC(C)[C@H]1CC[C@H](C(=O)N[C@H](Cc2ccccc2)C(=O)O)CC1 [NATEGLINIDE]
2. NC(=O)NO [HYDROXYUREA]

Not Active
Not Active

Here are 2 compounds. What values of IC50 were reported for them?
1. O=C1CC2(CCCC2)CC(=O)N1CCCCN1CCN(c2ncccn2)CC1 [BUSPIRONE]
2. C[C@@]12C(=O)OC(=O)[C@]1(C)[C@H]1CC[C@@H]2O1 [CANTHARIDIN]

1: Not Active; 2: Not Active
